Values were extracted from patent US20240262819A1.

Listed below: Kp at 4 h values for each entry.
assay: Evaluation of blood-brain barrier (BBB) permeability through oral administration; format: in vivo, mice; conditions: mouse, in vivo; mice, oral, dose 30 mg/kg, 4 hr; read-out: Mean brain-plasma drug ratio at 4 hr
Number, no unit, nothing else.

Some entries whose results are on file:
{"columns": ["smiles-string", "reported-property", "observed-measurement"],
 "data": [
  ["COc1c(C)cc(-c2cc3c(cc2F)[C@H](NC(=O)O[C@@H]2CN4CCC2CC4)C(C)(C)C3)cc1C", "Kp at 4 h", 1.4],
  ["CC(C)Oc1ccc(-c2cc3c(cc2F)[C@H](NC(=O)O[C@@H]2CN4CCC2CC4)C(C)(C)CC3)cc1Cl", "Kp at 4 h", 3.46],
  ["CCc1cccc(-c2ccc3c(c2)CCC(C)(C)[C@H]3NC(=O)O[C@@H]2CN3CCC2CC3)c1", "Kp at 4 h", 3.67],
  ["CCCOc1c(C)cc(-c2ccc3c(c2)CC(C)(C)[C@H]3NC(=O)O[C@@H]2CN3CCC2CC3)cc1C", "Kp at 4 h", 6.84],
  ["COc1ccc(-c2cc3c(cc2F)[C@H](NC(=O)O[C@@H]2CN4CCC2CC4)C(C)(C)C3)c(F)c1", "Kp at 4 h", 4.11]
]}

Answer with the recorded Kp at 4 h of CC(C)Oc1ccc(-c2ccc3c(c2)CC(C)(C)[C@H]3NC(=O)O[C@@H]2CN3CCC2CC3)cc1F only.
6.48

Answer with the recorded Kp at 4 h of CCCOc1ccc(-c2cc3c(cc2F)[C@H](NC(=O)O[C@@H]2CN4CCC2CC4)C(C)(C)C3)cc1 only.
9.84

---

experiment: Evaluation of blood-brain barrier (BBB) permeability through oral administration; type: in vivo, mice; details: mouse, in vivo; mice, oral, dose 30 mg/kg, 4 hr; read-out: Mean drug concentrations in plasma at 4 hr
// label = Satisfied if concentration at 4 h is not less than 800 ng/mL, otherwise Not satisfied

Consider the worked cases shown below.
{"columns": ["smiles-string", "category"],
 "data": [
  ["Cc1cc(-c2ccc3c(c2)CC(C)(C)[C@H]3NC(=O)O[C@@H]2CN3CCC2CC3)ccc1OC(C)C", "Not satisfied"],
  ["COc1ccc(-c2cc3c(cc2F)[C@H](NC(=O)O[C@@H]2CN4CCC2CC4)C(C)(C)C3)cc1", "Satisfied"],
  ["CC1(C)Cc2cc(-c3ccc(OCC4CC4)cc3Cl)ccc2[C@@H]1NC(=O)O[C@@H]1CN2CCC1CC2", "Not satisfied"],
  ["CCCc1ccc(-c2cc3c(cc2F)[C@H](NC(=O)O[C@@H]2CN4CCC2CC4)C(C)(C)C3)cc1", "Not satisfied"],
  ["CC(C)Oc1ccc(-c2ccc3c(c2)CC(C)(C)[C@H]3NC(=O)O[C@@H]2CN3CCC2CC3)cc1F", "Satisfied"]
]}

Decide: is the reported value of concentration at 4 h for CCCOc1c(C)cc(-c2ccc3c(c2)CCC(C)(C)[C@H]3NC(=O)O[C@@H]2CN3CCC2CC3)cc1C equal to or greater than 800 ng/mL?
Satisfied

Decide: is the reported value of concentration at 4 h for CC(C)Oc1ccc(-c2cc3c(cc2F)[C@H](NC(=O)O[C@@H]2CN4CCC2CC4)C(C)(C)C3)cc1 equal to or greater than 800 ng/mL?
Satisfied

Decide: is the reported value of concentration at 4 h for CCOc1ccc(-c2cc3c(cc2F)[C@H](NC(=O)O[C@@H]2CN4CCC2CC4)C(C)(C)C3)cc1Cl equal to or greater than 800 ng/mL?
Satisfied

Decide: is the reported value of concentration at 4 h for CCOc1c(C)cc(-c2ccc3c(c2)CC(C)(C)[C@H]3NC(=O)O[C@@H]2CN3CCC2CC3)cc1C equal to or greater than 800 ng/mL?
Satisfied

Decide: is the reported value of concentration at 4 h for COc1ccc(-c2cc3c(cc2F)[C@H](NC(=O)O[C@@H]2CN4CCC2CC4)C(C)(C)C3)c(Cl)c1 equal to or greater than 800 ng/mL?
Satisfied

Decide: is the reported value of concentration at 4 h for CC(C)Cc1ccc(-c2cc3c(cc2F)[C@H](NC(=O)O[C@@H]2CN4CCC2CC4)C(C)(C)C3)cc1 equal to or greater than 800 ng/mL?
Not satisfied

Decide: is the reported value of concentration at 4 h for CCCOc1ccc(-c2cc3c(cc2F)[C@H](NC(=O)O[C@@H]2CN4CCC2CC4)C(C)(C)C3)cc1Cl equal to or greater than 800 ng/mL?
Not satisfied

Decide: is the reported value of concentration at 4 h for Cc1ccc(-c2ccc3c(c2)CC(C)(C)[C@H]3NC(=O)O[C@@H]2CN3CCC2CC3)cc1Cl equal to or greater than 800 ng/mL?
Satisfied

---

target: glucosylceramide synthase (GCS) (Homo sapiens (Human)); assay: Evaluation of inhibitory activities against GCS (A549 cell lysate, NBD C6-ceramide, HPLC); assay type: biochemical; settings: % GCS activity, A549 cell lysate, 37° C. for 90 minutes; read-out: IC50
reported-property: pIC50
Reminder that pIC50 is minus the log10 of a molar concentration.

Some entries whose results are on file:
{"columns": ["smiles-string", "pIC50"],
 "data": [
  ["CCCCc1ccc(-c2ccc3c(c2)CCC(C)(C)[C@H]3NC(=O)O[C@@H]2CN3CCC2CC3)cc1", 9.64],
  ["CC(C)Oc1ccc(-c2ccc3c(c2)CCC(C)(C)[C@H]3NC(=O)O[C@@H]2CN3CCC2CC3)cc1Cl", 8.90],
  ["CCCOc1cccc(-c2cc3c(cc2F)[C@H](NC(=O)O[C@@H]2CN4CCC2CC4)C(C)(C)CC3)c1", 9.28]
]}

As a next step, examine the compound that follows.
Answer with the recorded pIC50 of COc1c(C)cc(-c2ccc3c(c2)CCC(C)(C)[C@H]3NC(=O)O[C@@H]2CN3CCC2CC3)cc1C only.
8.93

---

target: glucosylceramide synthase (GCS) (Homo sapiens (Human), UniProt Q16739); experiment: Evaluation of inhibitory activities against GCS (A549 cell lysate, NBD C6-ceramide, HPLC); format: biochemical
Sequence (Q16739 whole entry): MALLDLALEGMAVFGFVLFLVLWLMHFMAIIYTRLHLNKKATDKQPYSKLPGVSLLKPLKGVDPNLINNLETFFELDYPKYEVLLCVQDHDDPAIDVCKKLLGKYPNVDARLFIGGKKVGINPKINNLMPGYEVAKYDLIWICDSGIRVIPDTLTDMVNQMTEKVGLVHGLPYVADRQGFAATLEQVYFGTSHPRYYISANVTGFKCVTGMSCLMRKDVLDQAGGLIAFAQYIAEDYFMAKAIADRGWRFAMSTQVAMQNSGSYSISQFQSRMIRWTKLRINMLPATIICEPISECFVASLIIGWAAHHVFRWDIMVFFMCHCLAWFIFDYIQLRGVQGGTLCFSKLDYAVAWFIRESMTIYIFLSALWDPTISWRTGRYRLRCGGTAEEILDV
reported-property: pIC50
Reminder that pIC50 is minus the log10 of a molar concentration.

Some entries whose results are on file:
{"columns": ["molecule", "pIC50"],
 "data": [
  ["CC(C)COc1cc(F)cc(-c2cc3c(cc2F)[C@H](NC(=O)O[C@@H]2CN4CCC2CC4)C(C)(C)C3)c1 [Example 109]", 9.16],
  ["CCCCOc1ccc(-c2cc3c(cc2F)[C@H](NC(=O)O[C@@H]2CN4CCC2CC4)C(C)(C)CC3)cc1 [Example 178]", 9.66]
]}

Answer with the recorded pIC50 of CC(C)c1ccc(-c2ccc3c(c2)CCC(C)(C)[C@H]3NC(=O)O[C@@H]2CN3CCC2CC3)cc1 [Example 141] only.
9.37

Answer with the recorded pIC50 of Cc1cc(OC(C)C)ccc1-c1cc2c(cc1F)[C@H](NC(=O)O[C@@H]1CN3CCC1CC3)C(C)(C)C2 [Example 96] only.
10.10

Answer with the recorded pIC50 of CCOc1ccc(-c2ccc3c(c2)CC(C)(C)[C@H]3NC(=O)O[C@@H]2CN3CCC2CC3)cc1C [Example 46] only.
8.66

Answer with the recorded pIC50 of CC(C)Oc1ccc(-c2cc3c(cc2F)[C@H](NC(=O)O[C@@H]2CN4CCC2CC4)C(C)(C)C3)c(Cl)c1 [Example 92] only.
10.15

---

Listed below: pIC50 values for each entry.
target: glucosylceramide synthase (GCS) (Homo sapiens (Human), UniProt Q16739); experiment: Evaluation of inhibitory activities against GCS (A549 cell lysate, NBD C6-ceramide, HPLC); type: biochemical
Reminder that pIC50 is minus the log10 of a molar concentration.

Some entries whose results are on file:
{"columns": ["smiles-string", "pIC50"],
 "data": [
  ["CCCc1ccc(-c2cc3c(cc2OCC)[C@H](NC(=O)O[C@@H]2CN4CCC2CC4)C(C)(C)C3)cc1", 8.74],
  ["Cc1cc(-c2ccc3c(c2)CC(C)(C)[C@H]3NC(=O)O[C@@H]2CN3CCC2CC3)ccc1OC(F)F", 8.89],
  ["CCc1ccc(-c2ccc3c(c2)CCC(C)(C)[C@H]3NC(=O)O[C@@H]2CN3CCC2CC3)cc1F", 9.85],
  ["CCOc1ccc(-c2cc3c(cc2F)[C@H](NC(=O)O[C@@H]2CN4CCC2CC4)C(C)(C)C3)c(Cl)c1", 10.00],
  ["CC1(C)Cc2cc(-c3ccc(OCC4CC4)cc3Cl)c(F)cc2[C@@H]1NC(=O)O[C@@H]1CN2CCC1CC2", 10.22],
  ["CC(C)COc1cc(F)cc(-c2ccc3c(c2)CC(C)(C)[C@H]3NC(=O)O[C@@H]2CN3CCC2CC3)c1", 9.36]
]}

Answer with the recorded pIC50 of CC(C)COc1cccc(-c2ccc3c(c2)CCC(C)(C)[C@H]3NC(=O)O[C@@H]2CN3CCC2CC3)c1 only.
8.09

Answer with the recorded pIC50 of CC(C)Oc1ccc(-c2ccc3c(c2)CCC(C)(C)[C@H]3NC(=O)O[C@@H]2CN3CCC2CC3)c(Cl)c1 only.
9.73

Answer with the recorded pIC50 of Cc1cc(-c2cc3c(cc2F)[C@H](NC(=O)O[C@@H]2CN4CCC2CC4)C(C)(C)CC3)cc(C)c1OC(C)C only.
8.51

Answer with the recorded pIC50 of CCCc1cccc(-c2cc3c(cc2F)[C@H](NC(=O)O[C@@H]2CN4CCC2CC4)C(C)(C)C3)c1 only.
8.92

Answer with the recorded pIC50 of COc1ccc(-c2cc3c(cc2F)[C@H](NC(=O)O[C@@H]2CN4CCC2CC4)C(C)(C)CC3)c(F)c1 only.
9.39

Answer with the recorded pIC50 of CCCOc1ccc(-c2cc3c(cc2F)[C@H](NC(=O)O[C@@H]2CN4CCC2CC4)C(C)(C)C3)cc1F only.
9.48

Answer with the recorded pIC50 of CC(C)COc1ccc(-c2ccc3c(c2)CCC(C)(C)[C@H]3NC(=O)O[C@@H]2CN3CCC2CC3)cc1 only.
9.77
